Source of measurements: the supplement of paper PMC10567573

B1: C20orf112 (parent)
chain: YANGGLNYSYRGYGALSSNLQPPA

variants of: B1; test: protein stability index of a GFP-peptide fusion (GPS, HEK-293T) (PSI 1-6); higher = more stable; conditions: c terminus: a fixed tail appended;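 note: lentivirally expressed fusions sorted by FACS into six bins by GFP to DsRed ratio, PSI derived from sequencing read proportions per bin multiplied by bin number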
Let's look at some variants and their measured protein stability index.
Answer with a bare number; do not write a unit.

Below: 8 variants and their reported protein stability index.
KANGGLNYSYRGYGALSSNLQPPA :: 2.96
YANCGLNYSYRGYGALSSNLQPPA :: 1.91
YANGKLNYSYRGYGALSSNLQPPA :: 1.82
YAPGGLNYSYRGYGALSSNLQPPA :: 2.35
YANGGLNYSYRGYGALSSFLQPPA :: 1.53
YANGGLNYSYRGYGALSSWLQPPA :: 2.61
YANGGLNYSYRGYGALSSNGQPPA :: 2.28
YAIGGLNYSYRGYGALSSNLQPPA :: 2.11

The reported protein stability index of the variant `YANGGLNYSYRGYGALSQNLQPPA` was 2.6

The reported protein stability index of the variant `YANGGLNPSYRGYGALSSNLQPPA` was 1.37

The reported protein stability index of the variant `YANGGLNYSYRGYPALSSNLQPPA` was 2.54
